- assay_remarks: NCI Yeast Anticancer Drug Screen. Data for the sgs1 strain (AID 173);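 also: 0% = growth of vehicle-only control cultures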
- condition_description: S. cerevisiae sgs1 mutant, at 33.0 µM, active compounds read high
About 79,000 compounds went through this panel and 15% of them were active in at least one assay; those are over-represented in the sample as a whole.
endpoint_label: growth inhibition (%)
Report the figure in % without appending any unit label.

Query string: Need growth inhibition of Cc1cccc(/C=N/NC(=S)N2CCCC2)n1 , thanks.
Result string: 95

Query string: Need growth inhibition of O=[N+]([O-])c1cc(Cl)cnc1Br , thanks.
Result string: 40

Query string: Need growth inhibition of Cc1cc(-c2cc(C)c(O)c(C(C)(C)C)c2)cc(C(C)(C)C)c1O , thanks.
Result string: 30

Query string: Need growth inhibition of Cc1cccc[n+]1C1CCc2c(ccc3ccccc23)C1=O (stereo unspecified) , thanks.
Result string: -5

Query string: Need growth inhibition of COc1cc([C@@H]2c3cc4c(cc3[C@@H](Nc3ccc(NC(=O)c5cc([N+](=O)[O-])cn5C)cc3)[C@H]3COC(=O)[C@H]23)OCO4)cc(OC)c1O , thanks.
Result string: 44

Query string: Need growth inhibition of CC1=C(SCc2ccccc2)C(=O)c2ccccc2C1=O , thanks.
Result string: 76

Query string: Need growth inhibition of CCCCCCCCCCCCNC(C)=O , thanks.
Result string: -4

Query string: Need growth inhibition of CCOc1ccc(NC(=O)C2=C(C)NC(C)=C(C(=O)Nc3ccc(OCC)cc3)C2c2cccc([N+](=O)[O-])c2)cc1 , thanks.
Result string: 44

Query string: Need growth inhibition of N#CC1=C(N)N(/N=C/c2ccccc2)C(c2ccccc2)C1(C#N)C#N (stereo unspecified) , thanks.
Result string: 93

Query string: Need growth inhibition of Cc1ccc2c3ccc4c(c3n(C)c2c1)C(=O)C=CC4=O , thanks.
Result string: 16

Query string: Need growth inhibition of O=C(C[n+]1ccc2ccccc2c1)c1ccc2ccccc2c1 , thanks.
Result string: -26

Query string: Need growth inhibition of CCCCCOC(=S)SC(=O)OCC , thanks.
Result string: 90

Query string: Need growth inhibition of Cc1ccccc1N=C(NO)c1ccccc1 , thanks.
Result string: 62

Query string: Need growth inhibition of O=C(/C=C(/c1ccccc1)N1CCCCC1)c1ccccc1 , thanks.
Result string: 20

Query string: Need growth inhibition of CC(=O)ON=C1C=CC(=C(C#N)c2ccc(Cl)cc2)C=C1 , thanks.
Result string: 58

Query string: Need growth inhibition of CC(=O)Nc1ccc(/C=C/[N+](=O)[O-])cc1 , thanks.
Result string: 52

Query string: Need growth inhibition of CC(=O)OC1CC2C(C)(C)C(=O)C=C[C@]2(C)C2CCC3(C)C(=CCC3[C@H](CO)C[C@H](O)C(=O)C(C)(C)O)[C@]12C (stereo partly specified) , thanks.
Result string: 87

Query string: Need growth inhibition of S=C1SCN(C2CCCCC2)CN1C1CCCCC1 , thanks.
Result string: 24

Query string: Need growth inhibition of CCCCN(CCCC)C(=O)/C=C/c1ccccc1 , thanks.
Result string: 33

Query string: Need growth inhibition of Cc1sc2ccc3ccccc3c2[n+]1C , thanks.
Result string: 19

Query string: Need growth inhibition of CS(=O)(=O)OCCN(CCOS(C)(=O)=O)c1ccc(C=Nc2ccc(-c3csc(COc4ccccc4)n3)cc2)cc1 , thanks.
Result string: 93

Query string: Need growth inhibition of Cc1ccc([N+]2=NC(c3ccccc3)=NN(c3ccccc3)C2)cc1 , thanks.
Result string: 87

Query string: Need growth inhibition of CCn1c(O)c(C=Nc2ccccc2)s/c1=N/Nc1nc(-c2ccccc2)cs1 , thanks.
Result string: 22

Query string: Need growth inhibition of CC(C)CCCC(C)C1CCC2C3CCC4=CC(=O)/C(=C\O)CC4(C)C3CCC12C (stereo unspecified) , thanks.
Result string: 3

Query string: Need growth inhibition of CC1OC(O[C@H]2/C=C/C=C/C=C/C=C/C=C/C=C/C=C/[C@H](C)[C@@H](O)[C@@H](C)[C@H](C)OC(=O)C[C@H](O)C[C@H](O)CC[C@@H](O)[C@H](O)C[C@H](O)C[C@]3(O)C[C@H](O)[C@@H](C(=O)O)[C@H](C2)O3)C(O)C(N)C1O (stereo partly specified) , thanks.
Result string: 99

Query string: Need growth inhibition of CCCC(=O)Oc1ccc(/C=N/NC(N)=S)nc1 , thanks.
Result string: -9
